Cited source: ChEMBL document CHEMBL5291721

This listing pairs compounds with measured AC50.
TESTED ON: Sodium-dependent dopamine transporter (Homo sapiens, UniProt Q01959); also: assay procedure not described here
Sequence (Q01959 whole entry): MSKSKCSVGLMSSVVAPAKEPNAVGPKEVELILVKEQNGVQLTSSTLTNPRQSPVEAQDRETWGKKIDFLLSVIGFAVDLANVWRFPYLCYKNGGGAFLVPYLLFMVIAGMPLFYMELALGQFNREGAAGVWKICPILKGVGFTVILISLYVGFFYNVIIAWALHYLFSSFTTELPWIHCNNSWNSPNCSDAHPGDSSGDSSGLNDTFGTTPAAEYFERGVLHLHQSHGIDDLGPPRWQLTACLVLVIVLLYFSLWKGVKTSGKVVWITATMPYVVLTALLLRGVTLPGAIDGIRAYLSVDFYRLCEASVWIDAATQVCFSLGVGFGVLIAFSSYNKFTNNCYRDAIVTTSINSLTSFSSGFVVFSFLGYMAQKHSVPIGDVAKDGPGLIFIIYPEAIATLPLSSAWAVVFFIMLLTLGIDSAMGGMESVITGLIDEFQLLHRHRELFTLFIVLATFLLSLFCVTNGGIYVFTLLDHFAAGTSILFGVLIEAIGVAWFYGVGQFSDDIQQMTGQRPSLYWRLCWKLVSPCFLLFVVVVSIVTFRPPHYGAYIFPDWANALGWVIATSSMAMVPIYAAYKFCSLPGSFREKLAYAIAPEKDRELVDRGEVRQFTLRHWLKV
PARAMETER MEASURED: AC50

In [3]: df
Out[3]:
                                    compound  parameter_measured  value_observed
 0  C=CC[N+]1([C@H]2C[C@H]3[C@@H]4CC[C@H]5C[C@H](O)[C@@H](N6CCOCC6)C[C@]5(C)[C@H]4CC[C@]3(C)[C@H]2OC(C)=O)CCCC1                AC50         > 30 µM
 1  O=C1c2cccc3c2[C@H](CCC3)CN1[C@@H]1CN2CCC1CC2                AC50         > 30 µM
 2                  CC(=O)Nc1ccc(CC(=O)O)cc1                AC50         > 30 µM
 3  CCCc1nc2c(C)cc(-c3nc4ccccc4n3C)cc2n1Cc1ccc(-c2ccccc2C(=O)O)cc1                AC50         > 30 µM
 4                     CC(C)c1cccc(C(C)C)c1O                AC50         > 30 µM
 5     Cc1cc(=O)n(-c2ccccc2)n1C [ANTIPYRINE]                AC50         > 30 µM
 6  COc1cc(N)c(Cl)cc1C(=O)NC1CCN(CCCOc2ccc(F)cc2)CC1OC (configuration not stated) [CISAPRIDE]                AC50         > 30 µM
 7  CC(C)(C)NCC(O)c1ccccc1Cl (configuration not stated)                AC50         > 30 µM
 8           COc1ccc(C2C(=O)c3ccccc3C2=O)cc1                AC50         > 10 µM
 9  C[C@]12C/C(=C/O)C(=O)C[C@@H]1CC[C@@H]1[C@@H]2CC[C@@]2(C)[C@H]1CC[C@]2(C)O                AC50         > 30 µM
10   CNC(=C[N+](=O)[O-])NCCSCc1csc(CN(C)C)n1                AC50         > 10 µM
11  CO/N=C(\C(=O)N[C@@H]1C(=O)N2C(C(=O)O)=C(CSc3nc(=O)c(=O)[nH]n3C)CS[C@H]12)c1csc(N)n1                AC50         > 30 µM
12         O=S1(=O)CCN(CN2CCS(=O)(=O)NC2)CN1                AC50         > 30 µM
13  CCC1(c2ccc(N)cc2)CCC(=O)NC1=O (configuration not stated) [AMINOGLUTETHIMIDE]                AC50         > 30 µM
14  CC(C)(Oc1ccc(CCNC(=O)c2ccc(Cl)cc2)cc1)C(=O)O [BEZAFIBRATE]                AC50         > 10 µM
15                 CCCc1cc(=O)[nH]c(=S)[nH]1                AC50         > 10 µM
16  CC(Cc1cccc(C(F)(F)F)c1)NCCOC(=O)c1ccccc1 (configuration not stated)                AC50           15 µM
17      Clc1ccc(Cn2c(CN3CCCC3)nc3ccccc32)cc1                AC50           24 µM
18  CCCCCCCC(=O)CC[C@@H]1[C@@H](C/C=C\CCCC(=O)OC(C)C)[C@@H](O)C[C@H]1O                AC50          7.2 µM
19       Cc1cc(C)nc(NS(=O)(=O)c2ccc(N)cc2)n1                AC50         > 10 µM
20  CCOc1nc2cccc(C(=O)O)c2n1Cc1ccc(-c2ccccc2-c2nnn[nH]2)cc1                AC50         > 30 µM
21       NC(=O)NC(=O)Cc1ccccc1 [PHENACEMIDE]                AC50         > 10 µM
22  Cc1nnc(SCC2=C(C(=O)O)N3C(=O)[C@@H](NC(=O)Cn4cnnn4)[C@H]3SC2)s1                AC50        > 300 µM
23  O=C(O)c1ccc(NC(=O)[C@H](Cc2ccc(O)cc2)NC(=O)c2ccccc2)cc1 [BENTIROMIDE]                AC50         > 10 µM
24           Cc1ccnc2c1NC(=O)c1cccnc1N2C1CC1                AC50         > 10 µM
25  CCCCCCCN(CC)CCCC(O)c1ccc(NS(C)(=O)=O)cc1 (configuration not stated) [IBUTILIDE]                AC50         > 30 µM
26         O=C(O)c1cccnc1Nc1cccc(C(F)(F)F)c1                AC50         > 10 µM
27    CNCCc1ccc(OC(=O)C(C)C)c(OC(=O)C(C)C)c1                AC50         > 30 µM
28  O=C(O)CCNC(=O)c1ccc(/N=N/c2ccc(O)c(C(=O)O)c2)cc1 [BALSALAZIDE]                AC50         > 30 µM
29  CCC(NC(C)C)C(O)c1ccc(O)c2[nH]c(=O)ccc12 (configuration not stated)                AC50         > 30 µM
30  CC[C@@H](CO)NC(=O)[C@@H]1C=C2c3cccc4c3c(cn4C)C[C@H]2N(C)C1 [METHYSERGIDE]                AC50         > 30 µM
31  CC(c1cc2ccccc2s1)N(O)C(N)=O (configuration not stated)                AC50         > 10 µM
32             CCC1(CCC(C)C)C(=O)NC(=O)NC1=O                AC50         > 10 µM
33  CC(CN(C)C)C(C)(O)Cc1ccc(Cl)cc1 (configuration not stated)                AC50         > 30 µM
34   CNC[C@H](O)c1ccc(O)c(O)c1 [EPINEPHRINE]                AC50         > 30 µM
35  COc1cc(C(=O)NS(=O)(=O)c2ccccc2C)ccc1Cc1cn(C)c2ccc(NC(=O)OC3CCCC3)cc12                AC50         > 10 µM
36  CN(C)C/C=C/C(=O)Nc1cc2c(Nc3ccc(F)c(Cl)c3)ncnc2cc1O[C@H]1CCOC1                AC50         23.2 µM

* * *

Please consider the recorded AC50 for Sodium-dependent serotonin transporter (Homo sapiens, UniProt P31645) in what follows.
PARAMETER MEASURED: AC50

                                   molecule  parameter_measured  value_observed
0        CC(=O)NCCCCCC(=O)O [ACEXAMIC ACID]                AC50         > 30 µM
1  C#C[C@]1(O)C=C[C@H]2[C@@H]3CCC4=CC(=O)CC[C@@H]4[C@H]3CC[C@@]21CC [GESTODENE]                AC50         4.59 µM
2  Cc1cc(=O)[nH]c(=S)[nH]1 [METHYLTHIOURACIL]                AC50         > 30 µM
3  O=C(CCC/C=C\C[C@@H]1[C@@H](CC[C@@H](O)CCc2ccccc2)[C@H](O)C[C@@H]1O)OCCCCO[N+](=O)[O-] [LATANOPROSTENE BUNOD]                AC50         > 30 µM

* * *

Please consider the recorded AC50 for Kappa-type opioid receptor (Homo sapiens, UniProt P41145) in what follows.
Where a SMILES comes first, the peptide text is derived from it. [ ]: non-standard residue; d: D form. pGlu = O=C1CC[C@@H](C(=O)O)N1; Thz = O=C(O)[C@@H]1CSCN1
PARAMETER MEASURED: AC50

In [3]: df
Out[3]:
                                    molecule  value_observed
 0               O=C1c2ccccc2C(=O)C1c1ccccc1         > 10 µM
 1  CC(C)(O/N=C(\C(=O)N[C@@H]1C(=O)N2C(C(=O)[O-])=C(C[n+]3ccccc3)CS[C@H]12)c1csc(N)n1)C(=O)O         > 30 µM
 2   CCOC(=O)c1ncn2c1CN(C)C(=O)c1cc(F)ccc1-2         > 30 µM
 3  CCN1CCCC1CNC(=O)c1cc(S(=O)(=O)CC)ccc1OC (stereo not given) [SULTOPRIDE]         > 30 µM
 4  CCOc1nc2cccc(C(=O)O)c2n1Cc1ccc(-c2ccccc2-c2nnn[nH]2)cc1         > 10 µM
 5  CC(C)[C@H](N)C(=O)OCCOCn1cnc2c(=O)[nH]c(N)nc21         > 10 µM
 6  O=C1c2cccc3c2[C@H](CCC3)CN1[C@@H]1CN2CCC1CC2         > 30 µM
 7         CCCN1CCCC[C@H]1C(=O)Nc1c(C)cccc1C         > 30 µM
 8  OC[C@H]1O[C@@H](n2cnc3c2NC=NC[C@H]3O)C[C@@H]1O         > 30 µM
 9  CCN1CC(CCN2CCOCC2)C(c2ccccc2)(c2ccccc2)C1=O (stereo not given)         > 30 µM
10  CC(C)N(CCCCOCC(=O)O)c1cnc(-c2ccccc2)c(-c2ccccc2)n1         > 30 µM
11  CC(O)(CS(=O)(=O)c1ccc(F)cc1)C(=O)Nc1ccc(C#N)c(C(F)(F)F)c1 (stereo not given) [BICALUTAMIDE]         > 10 µM
12  CCCNC(=O)NS(=O)(=O)c1ccc(Cl)cc1 [CHLORPROPAMIDE]         > 10 µM
13  C[C@]12C/C(=C/O)C(=O)C[C@@H]1CC[C@@H]1[C@@H]2CC[C@@]2(C)[C@H]1CC[C@]2(C)O         > 30 µM
14     C[N+]1(C)CCC(=C(c2ccccc2)c2ccccc2)CC1         > 10 µM
15  CC(Cc1cccc(C(F)(F)F)c1)NCCOC(=O)c1ccccc1 (stereo not given)         > 30 µM
16  C[C@@H]1C[C@H]2[C@@H]3CCC4=CC(=O)C=C[C@]4(C)[C@@]3(F)[C@@H](O)C[C@]2(C)[C@@]1(O)C(=O)CO         > 10 µM
17  CCOC(=O)c1c(CSc2ccccc2)n(C)c2cc(Br)c(O)c(CN(C)C)c12         > 30 µM
18  C[N+]12CCC(CC1)C(OC(=O)C(O)(c1ccccc1)c1ccccc1)C2 (stereo not given)         > 30 µM
19  COc1cc(C(=O)NC2CCCNC2)cc(OC)c1OC (stereo not given) [TROXIPIDE]           16 µM
20  Cc1ccccc1N1C(=O)c2cc(S(N)(=O)=O)c(Cl)cc2NC1C (stereo not given)         > 10 µM
21  O=C1Nc2ccc(Cl)cc2C(c2ccccc2Cl)=NC1O (stereo not given)         > 10 µM
22  CC1(C)S[C@@H]2[C@H](NC(=O)C(C(=O)O)c3ccccc3)C(=O)N2[C@H]1C(=O)O (stereo not given in full)         > 30 µM
23  O=C1CC[C@@H](C(=O)N2CSC[C@H]2C(=O)O)N1 [PIDOTIMOD] ([pGlu]-[Thz]-OH)         > 30 µM
24  CO/N=C(\C(=O)N[C@@H]1C(=O)N2C(C(=O)O)=C(CSc3nc(=O)c(=O)[nH]n3C)CS[C@H]12)c1csc(N)n1         > 30 µM
25         O=S1(=O)CCN(CN2CCS(=O)(=O)NC2)CN1         > 30 µM
26  Cn1c(=O)c2c(ncn2CCOC(=O)C(C)(C)Oc2ccc(Cl)cc2)n(C)c1=O [THEOFIBRATE]         > 30 µM
27  CC/C=C\C/C=C\C/C=C\C/C=C\C/C=C\CCCC(=O)OCC         > 30 µM
28                 CCCc1cc(=O)[nH]c(=S)[nH]1         > 10 µM
29  C=C1c2cccc(O)c2C(=O)C2=C(O)[C@]3(O)C(=O)C(C(N)=O)=C(O)[C@@H](N(C)C)[C@@H]3[C@@H](O)[C@H]12         > 10 µM
